Please go through the items and note down their Percent Effect.
Tested on: Wolbachia pipientis
experiment.notes: Anti-Wolbachia Cell-Based Screen
Type: functional
Parameters: scale not given: in the data most compounds retested in dose-response had high values
condition.notes: 5 µM
Hit rate of the full screen: of about 48,000 compounds, about 13,000 (27%) showed an effect of 50% or more. The list shows a part of the results.
Express it in %; write the number only.

Q) Need Percent Effect of COCCN1CCC12CCN(C(=O)c1ccsc1)CC2.O=C(O)C(F)(F)F , thanks.
A) -8.3

Q) Need Percent Effect of Cc1noc(C)c1-c1nc(C2CCCN(CCC(N)=O)C2)ccc1CO (stereo not given) , thanks.
A) 98.23

Q) Need Percent Effect of Cc1noc(C)c1-c1nc(C2CCCN(C(=O)CCN)C2)ccc1CO (stereo not given) , thanks.
A) 106.6

Q) Need Percent Effect of CC(SCCNS(=O)(=O)c1cnn(C)c1)c1cccs1 (stereo not given) , thanks.
A) 10.16

Q) Need Percent Effect of COCCCS(=O)(=O)N1CCN(c2cccc(O)c2)CC1 , thanks.
A) -6.016

Q) Need Percent Effect of COCCN1CCC2(C1)c1ccccc1S(=O)(=O)N2Cc1ccccc1.O=C(O)C(F)(F)F (stereo not given) , thanks.
A) 6.934

Q) Need Percent Effect of COCCN1CCN(Cc2ccc(F)c(C)c2)[C@H]2CS(=O)(=O)C[C@H]21 , thanks.
A) -0.5112

Q) Need Percent Effect of CC(C)C(O)CNC(=O)Nc1ccc(F)c(Cl)c1 (stereo not given) , thanks.
A) 4.966

Q) Need Percent Effect of CC(C)CCOCCNC(=O)Nc1ccc(F)c(C(N)=O)c1 , thanks.
A) 86.61

Q) Need Percent Effect of COCC(=O)Nc1ccc2c(c1)C1(CCOCC1)CN2CCF.O=C(O)C(F)(F)F , thanks.
A) 107

Q) Need Percent Effect of COCCNC(=O)Nc1ccc(-n2cncn2)c(F)c1 , thanks.
A) -15.63

Q) Need Percent Effect of CCc1noc(CN2CCCC2C(=O)OCc2ccccc2)n1 (stereo not given) , thanks.
A) 6.169

Q) Need Percent Effect of COCCN1C2(CCN(CC3CC3)C2)c2ccccc2S1(=O)=O.O=C(O)C(F)(F)F (stereo not given) , thanks.
A) 102.4

Q) Need Percent Effect of CC(Sc1nnc(C2CC2)n1CC(N)=O)c1ccc(F)cc1F (stereo not given) , thanks.
A) -10.03

Q) Need Percent Effect of CC(C)Cn1cncc1CNC1CCSCC1 , thanks.
A) 2.151

====

Test system: Wolbachia pipientis
experiment.notes: Anti-Wolbachia Cell-Based Screen
Assay type: functional
Parameters: scale not given: in the data most compounds retested in dose-response had high values
condition.notes: 5 µM
The whole screen tested about 48,000 compounds, of which about 13,000 (27%) showed an effect of 50% or more. The list shows a part of the results.
Please go through the items and note down their Percent Effect.
Express it in %; write the number only.

Q) Need Percent Effect of CC(=O)N1CCC2(CC1)CC(Oc1ccccc1)CO2 (stereo not drawn) , thanks.
A) -5.824

Q) Need Percent Effect of CCn1ncc2c1C(COCC1CC1)N(C(=O)c1ccncn1)CC2.O=C(O)C(F)(F)F (stereo not drawn) , thanks.
A) -5.083

Q) Need Percent Effect of O=c1cc(N2CCNCC2)cnn1CCCn1cccn1 , thanks.
A) 6.31

Q) Need Percent Effect of COC(=O)N1CC[C@@]2(C1)[C@H](OC)CN(c1ccccc1)S2(=O)=O , thanks.
A) 101.1

Q) Need Percent Effect of O=C(C1CC2(CCNCC2)CN1)N1CCN(c2ccccc2)CC1 (stereo not drawn) , thanks.
A) -0.8952

Q) Need Percent Effect of CCn1ncc2c1C(COC)N(C(=O)CCc1ccccc1)CC2.O=C(O)C(F)(F)F (stereo not drawn) , thanks.
A) 87.3

Q) Need Percent Effect of COCCN1CCN(Cc2nnc(-c3occc3C)o2)CC1 , thanks.
A) 0.1537

Q) Need Percent Effect of COCc1nnc(C(=O)N(C)Cc2cnc3ccccn23)o1 , thanks.
A) -16.21

Q) Need Percent Effect of COc1cccc(-c2n[nH]c3c2CN(C(=O)c2oc(C)cc2C)CC3)c1 , thanks.
A) 3.438

Q) Need Percent Effect of CO[C@@H]1CN(c2ccccc2)S(=O)(=O)[C@@]12CCN(C(C)=O)C2 , thanks.
A) 94.97

Q) Need Percent Effect of O=C(NCCc1cccs1)[C@]12COC[C@H]1CN(c1ncccn1)C2.O=C(O)C(F)(F)F , thanks.
A) -26.22

Q) Need Percent Effect of COC(=O)c1cccn1C1CCN(Cc2cnc3ccccn23)CC1 , thanks.
A) 132

Q) Need Percent Effect of Cc1ncc2c(n1)CCN(Cc1nc3ccccc3o1)C2 , thanks.
A) 7.952

Q) Need Percent Effect of CCOCCCNC(=O)c1cccn1Cc1cccnc1 , thanks.
A) -15.39

Q) Need Percent Effect of CCn1ncc2c1C(COC)N(C(=O)Cc1cccs1)CC2 (stereo not drawn) , thanks.
A) 110.7

Q) Need Percent Effect of CCn1ncc2c1C(COC)N(C(=O)c1cscn1)CC2.O=C(O)C(F)(F)F (stereo not drawn) , thanks.
A) 99.84

Q) Need Percent Effect of COCC1c2nnn(CC3CC3)c2CCN1C(=O)Cc1cccs1 (stereo not drawn) , thanks.
A) 9.028

Q) Need Percent Effect of COC(=O)c1cccn1C1CCN(CCN2C(=O)CCC2=O)CC1 , thanks.
A) 85.14
